Settings: rat, in vivo, iv, 2 mg/kg
Bridge positions count the residues as written; N and C are the ends. Square brackets hold non-standard residues; d marks the D form. Peptide text beside a SMILES is read from it. * marks the point of attachment. Piperazin2one(3S-Bu,6R-CO) = CCCC[C@@H]1NC[C@H](C(=O)*)NC1=O; X1 = N=C(N)NCCC[C@H]1C(=O)N[C@@H](C(N)=O)CN1*; Nle = CCCC[C@H](N)C(=O)O; Orn = NCCC[C@H](N)C(=O)O
# key: entry, value: clearance
Give the number; mL/min/kg is assumed, so skip it.

* CCCC[C@@H]1NC[C@H](C(=O)N[C@H]2CSSC[C@@H](C(=O)N[C@@H](Cc3ccc(O)cc3)C(=O)N3C[C@H](C(N)=O)NC(=O)[C@@H]3CCCNC(=N)N)NC(=O)[C@H](CO)NC(=O)[C@H]([C@@H](C)CC)NC(=O)[C@H](CCCNC(=N)N)NC(=O)[C@H](CC(=O)O)NC(=O)[C@H](CCCC)NC(=O)[C@H](CCCNC(=N)N)NC(=O)CNC(=O)[C@@H](C)NC(=O)[C@H](Cc3ccccc3)NC(=O)[C@H](Cc3c[nH]cn3)NC2=O)NC1=O [1-68] | 40

For reference, reported clearance for CCCC[C@@H]1NC[C@H](C(=O)N[C@H]2CSSC[C@@H](C(=O)N[C@@H](Cc3ccc(O)cc3)C(=O)N3C[C@H](C(N)=O)NC(=O)[C@@H]3CCCNC(=N)N)NC(=O)[C@H](CO)NC(=O)[C@H]([C@@H](C)CC)NC(=O)[C@H](CCCN)NC(=O)[C@H](CC(=O)O)NC(=O)[C@H](CCCC)NC(=O)[C@H](CCCNC(=N)N)NC(=O)CNC(=O)CNC(=O)[C@H](Cc3ccccc3)NC(=O)[C@H](Cc3c[nH]cn3)NC2=O)NC1=O [1-55] ({Piperazin2one(3S-Bu,6R-CO)}-CHFGGR[Nle]D[Orn]ISCY-X1; disulfide 1-12) stands at 21

----------
Details: rat, in vivo, iv, 2 mg/kg
Bridge positions count the residues as written; N and C are the ends. Square brackets hold non-standard residues; d marks the D form. Peptide text beside a SMILES is read from it. * marks the point of attachment. Piperazin2one(3S-Bu,6R-CO) = CCCC[C@@H]1NC[C@H](C(=O)*)NC1=O; X1 = N=C(N)NCCC[C@H]1C(=O)N[C@@H](C(N)=O)CN1*; Nle = CCCC[C@H](N)C(=O)O
# maps each entry to its clearance
The answer is to be given in mL/min/kg; state only the numeric part.

* CCCC[C@@H]1NC[C@H](C(=O)N[C@H]2CSSC[C@@H](C(=O)N[C@@H](Cc3ccc(O)cc3)C(=O)N3C[C@H](C(N)=O)NC(=O)[C@@H]3CCCNC(=N)N)NC(=O)[C@H](CO)NC(=O)[C@H]([C@@H](C)CC)NC(=O)[C@H](CCCNC(=N)N)NC(=O)[C@H](CC(=O)O)NC(=O)[C@H](CCCC)NC(=O)[C@@H](CCCNC(=N)N)NC(=O)CNC(=O)CNC(=O)[C@H](Cc3ccccc3)NC(=O)[C@H](Cc3c[nH]cn3)NC2=O)NC1=O [1-42] ({Piperazin2one(3S-Bu,6R-CO)}-CHFGG[dR][Nle]DRISCY-X1; disulfide 1-12) | 50

Briefly, clearance measured for CCCC[C@@H]1NC[C@H](C(=O)N[C@H]2CSSC[C@@H](C(=O)N[C@@H](Cc3ccc(O)cc3)C(=O)N3C[C@H](C(N)=O)NC(=O)[C@@H]3CCCNC(=N)N)NC(=O)[C@H](CO)NC(=O)[C@H]([C@@H](C)CC)NC(=O)[C@H](CCCNC(=N)N)NC(=O)[C@H](C)NC(=O)[C@H](CCCC)NC(=O)[C@H](CCCNC(=N)N)NC(=O)CNC(=O)CNC(=O)[C@H](Cc3ccccc3)NC(=O)[C@H](Cc3c[nH]cn3)NC2=O)NC1=O [1-35] : 1860

----------
Settings: rat, in vivo, sc, 5 mg/kg
Bridge positions count the residues as written; N and C are the ends. Square brackets hold non-standard residues; d marks the D form. Peptide text beside a SMILES is read from it. * marks the point of attachment. Piperazin2one(3S-Bu,6R-CO) = CCCC[C@@H]1NC[C@H](C(=O)*)NC1=O; X1 = N=C(N)NCCC[C@H]1C(=O)N[C@@H](C(N)=O)CN1*; Nle = CCCC[C@H](N)C(=O)O; Orn = NCCC[C@H](N)C(=O)O
Entries and their half-life
Reply numerically in h, unit not repeated.

- CCCC[C@@H]1NC[C@H](C(=O)N[C@H]2CSSC[C@@H](C(=O)N[C@@H](Cc3ccc(O)cc3)C(=O)N3C[C@H](C(N)=O)NC(=O)[C@@H]3CCCNC(=N)N)NC(=O)[C@H](CO)NC(=O)[C@H]([C@@H](C)CC)NC(=O)[C@H](CCCNC(=N)N)NC(=O)[C@H](CC(=O)O)NC(=O)[C@H](CCCC)NC(=O)[C@H](CCCNC(=N)N)NC(=O)CNC(=O)CNC(=O)[C@H](Cc3ccccc3)NC(=O)[C@H](Cc3c[nH]cn3)NC2=O)NC1=O [1-18] ({Piperazin2one(3S-Bu,6R-CO)}-CHFGGR[Nle]DRISCY-X1; disulfide 1-12): 1.6

Now consider a different molecule.
Lab note: CCCC[C@@H]1NC[C@H](C(=O)N[C@H]2CSSC[C@@H](C(=O)N[C@@H](Cc3ccc(O)cc3)C(=O)N3C[C@H](C(N)=O)NC(=O)[C@@H]3CCCNC(=N)N)NC(=O)[C@H](CO)NC(=O)[C@H]([C@@H](C)CC)NC(=O)[C@H](CCCN)NC(=O)[C@H](CC(=O)O)NC(=O)[C@H](CCCC)NC(=O)[C@H](CCCNC(=N)N)NC(=O)CNC(=O)CNC(=O)[C@H](Cc3ccccc3)NC(=O)[C@H](Cc3c[nH]cn3)NC2=O)NC1=O [1-55] ({Piperazin2one(3S-Bu,6R-CO)}-CHFGGR[Nle]D[Orn]ISCY-X1; disulfide 1-12) gave half-life of 0.5

----------
Conditions: rat, in vivo, iv, 0.3 mg/kg
Bridge positions count the residues as written; N and C are the ends. Square brackets hold non-standard residues; d marks the D form. Peptide text beside a SMILES is read from it. * marks the point of attachment. Piperazin2one(3S-Bu,6R-CO) = CCCC[C@@H]1NC[C@H](C(=O)*)NC1=O; X1 = N=C(N)NCCC[C@H]1C(=O)N[C@@H](C(N)=O)CN1*; Heptanoyl = CCCCCCC(=O)*; Nle = CCCC[C@H](N)C(=O)O; Orn = NCCC[C@H](N)C(=O)O
The following compounds are listed with their measured clearance values.
Dear colleague, please send the value followed by its unit.

compound CCCC[C@@H]1NC[C@H](C(=O)N[C@H]2CSSC[C@@H](C(=O)N[C@@H](Cc3ccc(O)cc3)C(=O)N3C[C@H](C(N)=O)NC(=O)[C@@H]3CCCNC(=N)N)NC(=O)[C@H](CO)NC(=O)[C@H]([C@@H](C)CC)NC(=O)[C@H](CCCNC(=N)N)NC(=O)[C@H](CC(=O)O)NC(=O)[C@H](CCCC)NC(=O)[C@H](CCCNC(=N)N)NC(=O)CNC(=O)CNC(=O)[C@H](Cc3ccccc3)NC(=O)[C@H](Cc3c[nH]cn3)NC2=O)NC1=O [1-18] ({Piperazin2one(3S-Bu,6R-CO)}-CHFGGR[Nle]DRISCY-X1; disulfide 1-12) , clearance observed: 43 mL/min/kg

response.value for CCCC[C@@H]1NC[C@H](C(=O)N[C@H]2CSSC[C@@H](C(=O)N[C@@H](Cc3ccc(O)cc3)C(=O)N3C[C@H](C(N)=O)NC(=O)[C@@H]3CCCNC(=N)N)NC(=O)[C@H](CO)NC(=O)[C@H]([C@@H](C)CC)NC(=O)[C@H](CCCN)NC(=O)[C@H](CC(=O)O)NC(=O)[C@H](CCCC)NC(=O)[C@H](CCCNC(=N)N)NC(=O)CNC(=O)CNC(=O)[C@H](Cc3ccccc3)NC(=O)[C@H](Cc3c[nH]cn3)NC2=O)NC1=O [1-55] ({Piperazin2one(3S-Bu,6R-CO)}-CHFGGR[Nle]D[Orn]ISCY-X1; disulfide 1-12) (field: clearance) = 15 mL/min/kg

clearance reading for CCCCCCC(=O)N[C@H]1CSSC[C@@H](C(=O)N[C@@H](Cc2ccc(O)cc2)C(=O)N2C[C@H](C(N)=O)NC(=O)[C@@H]2CCCNC(=N)N)NC(=O)[C@H](CO)NC(=O)[C@H]([C@@H](C)CC)NC(=O)[C@H](CCCNC(=N)N)NC(=O)[C@H](CC(=O)O)NC(=O)[C@H](CCCC)NC(=O)[C@H](CCCNC(=N)N)NC(=O)CNC(=O)CNC(=O)[C@H](Cc2ccccc2)NC(=O)[C@H](Cc2c[nH]cn2)NC1=O [1-63] (Heptanoyl-CHFGGR[Nle]DRISCY-X1; disulfide 1-12) : 546 mL/min/kg
